- TEST TARGET: T1, In house human CD8A-Fc (human, UniProt P01732 22-182, limits assumed)
- T1 construct: Captured on goat anti-human Fc on a ProteOn GLC chip; also called hCD8A-Fc; recombinant human CD8 alpha; not shown: linker with flag (and polyhistidine) tag and Fc of human IgG1
- T1 sequence (P01732 22-182 limits assumed): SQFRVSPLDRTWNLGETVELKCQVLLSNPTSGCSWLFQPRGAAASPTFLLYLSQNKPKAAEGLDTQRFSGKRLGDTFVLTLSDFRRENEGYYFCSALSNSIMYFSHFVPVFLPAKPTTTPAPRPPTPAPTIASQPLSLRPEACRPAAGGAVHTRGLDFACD
- PROTOCOL TEXT: SPR (ProteOn), captured hCD8A-Fc
Readings of koff for the listed binders
Entry rule: numbers only, all in s⁻¹.

Study these solved cases before continuing.
- BINDER: "P282ER9P1360_C8 (designed binder, FN3 domain) LPAPKNLVVSRVTEDSARLSWTAPDAAFDSFGILYYEPVDSGEAITLPVPGSERSYDLTGLKPGTEYWVVITGVKGGAPSTPLGTIFTT"
  VALUE KIND: "koff"
  RECORDED VALUE: 0.000156
- BINDER: "P282AR9P1356_A10 (designed binder, FN3 domain) LPAPKNLVVSRVTEDSARLSWHTATNSFDSFLIQYQESEKVGEAIVLTVPGSERSYDLTGLKPGTEYTVSIYGVDVDYNPTGRPVSSNPLSAIFTT"
  VALUE KIND: "koff"
  RECORDED VALUE: 0.000291
- BINDER: "P283AR9P1362_C7 (designed binder, FN3 domain) LPAPKNLVVSRVTEDSARLSWVKRATSFDSFLIQYQESEKVGEAIVLTVPGSERSYDLTGLKPGTEYTVSIYGVDVRYNEGQPIWSNPLSAIFTT"
  VALUE KIND: "koff"
  RECORDED VALUE: 0.000186

Now for the binder whose koff we want.
Q) // returns reported koff for input P283BR9P1363_C4 (designed binder, FN3 domain) LPAPKNLVVSRVTEDSARLSWPIVNTPLHFDSFLIQYQESEKVGEAIVLTVPGSERSYDLTGLKPGTEYTVSIYGVDVQYTATGQPERSNPLSAIFTT
A) 0.000409

Origin of values: patent US20210032312A1
